Target: T1, Human full length B7-H3 (human, UniProt Q5ZPR3 29-534)
T1 sequence: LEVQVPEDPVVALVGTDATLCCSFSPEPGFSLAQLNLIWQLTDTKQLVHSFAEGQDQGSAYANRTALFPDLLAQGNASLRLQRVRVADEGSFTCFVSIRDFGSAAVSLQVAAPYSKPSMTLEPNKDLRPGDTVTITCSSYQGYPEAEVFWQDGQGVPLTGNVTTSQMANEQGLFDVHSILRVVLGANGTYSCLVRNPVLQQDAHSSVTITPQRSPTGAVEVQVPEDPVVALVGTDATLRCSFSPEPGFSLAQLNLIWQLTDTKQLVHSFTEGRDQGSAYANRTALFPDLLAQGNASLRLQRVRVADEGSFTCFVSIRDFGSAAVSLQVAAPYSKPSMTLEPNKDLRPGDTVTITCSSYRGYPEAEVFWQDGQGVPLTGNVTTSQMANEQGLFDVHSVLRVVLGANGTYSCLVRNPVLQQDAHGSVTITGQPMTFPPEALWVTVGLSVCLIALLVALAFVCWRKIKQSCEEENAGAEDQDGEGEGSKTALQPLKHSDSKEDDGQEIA
Experiment: cell-based or functional assay
Measurement Kind: EC50 nM H1650 (in vitro tumor cell cytotoxicity) (nM)

- Binder: "huAb3v2.6-ZZ (antibody, human IgG1, kappa, L234A L235A, V domains shown, synthon ZZ on interchain Cys) VH: EVQLVQSGAEVKKPGSSVKVSCKASGYTFSSYWMHWVRQAPGQGLEWIGLIHPESGSTNYNEMFKNRATLTVDRSTSTAYMELSSLRSEDTAVYYCAGGGRLYFDYWGQGTTVTVSS VL: DIVMTQSPLSLPVTPGEPASISCRSSQSLVHSNQDTYLRWYLQKPGQSPQLLIYKVSNRFSGVPDRFSGSGSGTDFTLKISRVEAEDVGVYYCSQSTHVPYTFGGGTKVEIKR"
  Quantity Unit: "nM"
  Measured Result: 1.35
- Binder: "huAb3v2.5-TV (antibody, human IgG1, kappa, L234A L235A, V domains shown, synthon TV on interchain Cys) VH: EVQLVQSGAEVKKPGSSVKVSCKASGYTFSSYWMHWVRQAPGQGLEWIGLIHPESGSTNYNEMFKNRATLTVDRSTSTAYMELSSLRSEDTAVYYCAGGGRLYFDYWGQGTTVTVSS VL: DIVMTQSPLSLPVTPGEPASISCRSSQSLVHSNRDTYLRWYLQKPGQSPQLLIYKVSNRFSGVPDRFSGSGSGTDFTLKISRVEAEDVGVYYCSQSTHVPYTFGGGTKVEIKR"
  Quantity Unit: "nM"
  Measured Result: 0.53
- Binder: "huAb3v2.6-WD (antibody, human IgG1, kappa, L234A L235A, V domains shown, synthon WD on interchain Cys) VH: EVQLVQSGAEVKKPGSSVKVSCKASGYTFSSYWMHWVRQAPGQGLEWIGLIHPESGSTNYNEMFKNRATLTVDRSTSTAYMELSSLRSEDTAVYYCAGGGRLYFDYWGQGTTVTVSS VL: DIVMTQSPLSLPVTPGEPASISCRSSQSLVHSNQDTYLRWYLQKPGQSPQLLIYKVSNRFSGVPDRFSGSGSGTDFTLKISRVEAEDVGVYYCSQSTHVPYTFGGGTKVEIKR"
  Quantity Unit: "nM"
  Measured Result: 0.79

All figures here come from patent US20200002421A1.
